Test: Growth inhibition of human leukemia cells after 48 hrs by SRB assay
Type: functional
Conditions: Leukemia cell
resultType: GI50

Worked cases, answers included:
COc1cc(CSc2nc3ccc(C)cc3c(=O)n2-c2ccccc2)cc(OC)c1OC :: 1800 nM
COc1ccc(-n2c(SCc3cc(OC)c(OC)c(OC)c3)nc3ccc(C)cc3c2=O)c(OC)c1 :: 2500 nM
COc1cc(CSc2nc3ccc(Cl)cc3c(=O)n2Cc2ccccc2)cc(OC)c1OC :: 3000 nM
COc1ccc(-n2c(SCc3cc(OC)c(OC)c(OC)c3)nc3ccc(C)cc3c2=O)cc1 :: 3400 nM

Problem: Requested read-out: GI50. Entry: COc1cc2nc(SCc3cc(OC)c(OC)c(OC)c3)n(Cc3ccccc3)c(=O)c2cc1OC
Solution: 1900 nM

Problem: Requested read-out: GI50. Entry: COc1ccccc1-n1c(SCc2cc(OC)c(OC)c(OC)c2)nc2ccc(Cl)cc2c1=O
Solution: 2400 nM

Problem: Requested read-out: GI50. Entry: COc1cc(CSc2nc3ccc(C)cc3c(=O)n2Cc2ccccc2)cc(OC)c1OC
Solution: 2400 nM
